Assay: Cytotoxicity against human Raji cells assessed as cell viability at 1000 molar ratio after 48 hrs
Assay type: cell-based
Settings: read-out: Activity
readoutLabel: viability at 48 h, 1000 molar ratio (%)
Give your result in % as a bare value.

C=C(C)[C@H]1CC2=C(O1)C(=O)c1c(OC)cccc1C2=O; 60
COc1cccc2c1C(=O)C1=C(CCC(C)(C)O1)C2=O; 70
C=C(C)[C@@H]1OC2=C(C(=O)c3ccccc3C2=O)[C@@H]1O; 30
COc1cccc2c1C(=O)C1=C(C(=O)CC(C)(C)O1)C2=O; 70

If you can, please state the reported viability at 48 h, 1000 molar ratio value of CC1(C)CC=C(C2OC(=O)c3ccccc32)C(=O)O1 (centres undefined) . 70
